Collected pIC50 values appear next to each entry.
system: Macrophage cell line; assay: Cytotoxicity against human PBMC-differentiated macrophages treated for 24 hrs followed by compound washout and measured after 48 hrs by MTT assay; assay type: cell-based
Note on pIC50: it is the negative log10 of concentration, concentration in mol/L.

Worked cases, pIC50 given:
1) Cc1nc(-c2ccccc2)c(O)cc1C(=O)O    4.01
2) C[n+]1cc(O)c(C(=O)[O-])cc1-c1ccccc1    4.04

Okay, now this molecule:
pIC50 lookup needed for O=C(O)c1cc(O)cnc1-c1ccccc1 , thanks.
4.06

###

system: Staphylococcus aureus; test: Potentiation of tetracycline-induced antibacterial activity against Staphylococcus aureus ATCC 33592 assessed as minimum modulatory concentration up to 32 uM measured after 16 hrs in presence of MIC/4 tetracycline; type: functional; details: ATCC 33592, 16 h, read-out: MEC
Collected log10 of minimal effective concentration values appear next to each entry.
# values: log10(minimal effective concentration), units µM

Worked cases, log10 of minimal effective concentration given:
1) O=C(O)c1cc(-c2ccccc2)nc(-c2ccccc2)c1O    0.30
2) O=C(O)c1cnc2c(F)cc(F)cc2c1O    0.30
3) O=C(O)c1cc(O)cnc1-c1ccccc1    0.00
4) O=C(O)c1cnc(-c2ccccc2)c(O)c1    -0.60
5) O=C(O)c1ccnc(-c2ccccc2)c1O    0.30

Write down the reported log10 of minimal effective concentration of Cc1nc(-c2ccccc2)c(O)cc1C(=O)O , test system: Staphylococcus aureus.
0.60

Again, but for O=C(O)c1cc(-c2ccc(F)cc2F)ncc1O
0.30

Again, but for O=C(O)c1cc(O)c(-c2ccccc2)nc1-c1ccccc1
0.90

Again, but for Cc1nc(-c2ccccc2)cc(C(=O)O)c1O
1.20

###

system: Staphylococcus aureus; assay: Potentiation of methicillin-induced antibacterial activity against Staphylococcus aureus ATCC 33592 assessed as minimum modulatory concentration up to 32 uM measured after 16 hrs in presence of MIC/4 methicillin; format: functional; settings: ATCC 33592, 16 h, read-out: MEC
MEASURED ATTRIBUTE: minimal effective concentration (µM)
Write down the numeric answer in µM and omit the unit.

1) O=C(O)c1cc(-c2ccccc2)nc(-c2ccccc2)c1O    4

Okay, now this compound:
minimal effective concentration lookup needed for O=C(O)c1cc(O)cnc1-c1ccccc1 , thanks.
8

###

Collected minimal effective concentration values appear next to each entry.
system: Staphylococcus aureus; test: Potentiation of ciprofloxacin-induced antibacterial activity against Staphylococcus aureus ATCC 33592 assessed as minimum modulatory concentration up to 32 uM measured after 16 hrs in presence of MIC/4 ciprofloxacin; type: functional; details: ATCC 33592, 16 h, read-out: MEC

Worked cases, minimal effective concentration given:
1) C[n+]1ccc(C(=O)[O-])c(O)c1Cc1ccccc1    > 32 µM
2) C[n+]1cc(O)c(C(=O)[O-])cc1-c1ccccc1    > 32 µM
3) O=C(O)c1cc(-c2ccccc2)ncc1O    16 µM

minimal effective concentration lookup needed for Cc1nc(-c2ccccc2)cc(C(=O)O)c1O , thanks.
> 32 µM

###

test system: Streptococcus pyogenes; test: Potentiation of tetracycline-induced antibacterial activity against Streptococcus pyogenes ATCC 14289 assessed as minimum modulatory concentration up to 32 uM measured after 16 hrs in presence of MIC/4 tetracycline; type: functional; details: ATCC 14289, 16 h, read-out: MEC
MEASURED ATTRIBUTE: minimal effective concentration (µM)
Write down the numeric answer in µM and omit the unit.

1. Cc1nc(-c2ccccc2)c(O)cc1C(=O)O    4

Write down the reported minimal effective concentration of O=C(O)c1cc(-c2ccccc2)nc(-c2ccccc2)c1O , test system: Streptococcus pyogenes.
8

Again, but for O=C(O)c1cc(O)cnc1-c1ccccc1
2
